# maps each entry to its crop damage rating RICE
Test system: upland rice (Oryza sp., var.Cocodrie, RICE)
measurement.description: Greenhouse herbicide screen, post-emerge application, crop damage rating
Type: in vivo
recorded.conditions: POST emergent, 63 g ai/ha, 14 days after application, scale 0-100

compound | crop damage rating RICE
CC1CCCC(C)N1NC(=O)c1cc(-n2c(=O)cc(C(F)(F)F)n(C)c2=O)c(F)cc1Cl (centres unmarked) | 45
CCOC(=O)NNC(=O)c1cc(-n2c(=O)cc(C(F)(F)F)n(C)c2=O)c(F)cc1Cl | 45
Cn1c(C(F)(F)F)cc(=O)n(-c2cc(C(=O)NN=C(c3ccccc3)c3ccccc3)c(Cl)cc2F)c1=O | 0
Cn1c(C(F)(F)F)cc(=O)n(-c2cc(C(=O)NNC(=O)OC(C)(C)C)c(Cl)cc2F)c1=O | 60
CC1CCCC(C)N1N=C(OC(=O)C(Cl)Cl)c1cc(-n2c(=O)cc(C(F)(F)F)n(C)c2=O)c(F)cc1Cl (centres unmarked) | 0
CN(NC(=O)c1cc(-n2c(=O)cc(C(F)(F)F)n(C)c2=O)c(F)cc1Cl)c1ccccc1 | 45
CC(=NN=C(OC(=O)C(Cl)Cl)c1cc(-n2c(=O)cc(C(F)(F)F)n(C)c2=O)c(F)cc1Cl)C(C)(C)C | 10
CN(C)NC(=O)c1cc(-n2c(=O)cc(C(F)(F)F)n(C)c2=O)ccc1Cl | 10
